# assay-details: self-splicing fitness, log relative to wild type (ln ratio); higher = more splicing; Tetrahymena group I intron in knt gene, E. coli kanamycin selection, DiMSum; sequences stand for … in CUCUCU…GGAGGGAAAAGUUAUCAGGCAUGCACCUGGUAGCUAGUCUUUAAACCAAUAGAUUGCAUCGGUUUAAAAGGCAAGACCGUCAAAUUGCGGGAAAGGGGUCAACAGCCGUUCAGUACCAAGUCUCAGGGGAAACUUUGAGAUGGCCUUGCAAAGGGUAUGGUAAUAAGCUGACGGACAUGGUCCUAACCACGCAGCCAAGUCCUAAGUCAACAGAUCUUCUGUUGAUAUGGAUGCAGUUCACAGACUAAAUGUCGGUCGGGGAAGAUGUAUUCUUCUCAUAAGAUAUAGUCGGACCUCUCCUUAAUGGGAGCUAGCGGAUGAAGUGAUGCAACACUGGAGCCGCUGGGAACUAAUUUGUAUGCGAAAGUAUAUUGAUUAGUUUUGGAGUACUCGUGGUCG;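 further: selection with 25 µg/mL kanamycin versus none on LB agar overnight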
# experimental-parameters: 30 °C
measurement-name: self-splicing fitness (ln)
No unit in the answer, only the number.

>>> result_value("CGUUAGCAAUAUUACGGCAA")
-2.91
>>> result_value("GGCUAGCAAUAUUACGCUUG")
-3.03

Continue with the sequence presented below.
Task: Fill in: self-splicing fitness (ln) of `ACCUAGCAAUAUUACGGUGU` is ___
Result: -2.97

###

# assay-details: self-splicing fitness, log relative to wild type (ln ratio); higher = more splicing; Tetrahymena group I intron in knt gene, E. coli kanamycin selection, DiMSum; sequences stand for … in CUCUCU…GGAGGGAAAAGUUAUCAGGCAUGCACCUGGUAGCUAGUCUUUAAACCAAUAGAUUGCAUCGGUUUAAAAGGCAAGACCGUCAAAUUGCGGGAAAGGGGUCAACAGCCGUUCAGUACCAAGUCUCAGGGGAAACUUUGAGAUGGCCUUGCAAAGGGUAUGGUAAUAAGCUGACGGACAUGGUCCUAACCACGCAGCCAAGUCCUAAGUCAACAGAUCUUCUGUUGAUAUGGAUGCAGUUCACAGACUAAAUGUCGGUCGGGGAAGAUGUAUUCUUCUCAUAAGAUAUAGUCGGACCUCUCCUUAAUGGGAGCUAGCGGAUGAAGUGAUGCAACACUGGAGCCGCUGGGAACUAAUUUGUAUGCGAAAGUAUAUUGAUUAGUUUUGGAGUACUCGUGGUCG
# experimental-parameters: 30 °C
Reported self-splicing fitness (ln) is given for each of the following sequences.
Simply state the number, no unit and no words.

// solved cases for self-splicing fitness (ln) follow
>>> result_value("AAGCAGCAAUAUUACGUGUA")
-1.83
>>> result_value("CUUCAGCAAUAUUACGCCAU")
-4.2
>>> result_value("AUUGAGCAAUAUUACGUCAG")
-2.96
>>> result_value("UGAUAGCAAUAUUACGGCCU")
-0.718
>>> result_value("UGAGAGCAAUAUUACGUCGU")
-2.38

Proceeding to the next sequence to report its self-splicing fitness (ln).
Task: What value of measured self-splicing fitness (ln) is listed for `AUUGAGCAAUAUUACGUUCC` ?
Result: -1.94

###

# assay-details: self-splicing fitness, log relative to wild type (ln ratio); higher = more splicing; Tetrahymena group I intron in knt gene, E. coli kanamycin selection, DiMSum; sequences stand for … in CUCUCU…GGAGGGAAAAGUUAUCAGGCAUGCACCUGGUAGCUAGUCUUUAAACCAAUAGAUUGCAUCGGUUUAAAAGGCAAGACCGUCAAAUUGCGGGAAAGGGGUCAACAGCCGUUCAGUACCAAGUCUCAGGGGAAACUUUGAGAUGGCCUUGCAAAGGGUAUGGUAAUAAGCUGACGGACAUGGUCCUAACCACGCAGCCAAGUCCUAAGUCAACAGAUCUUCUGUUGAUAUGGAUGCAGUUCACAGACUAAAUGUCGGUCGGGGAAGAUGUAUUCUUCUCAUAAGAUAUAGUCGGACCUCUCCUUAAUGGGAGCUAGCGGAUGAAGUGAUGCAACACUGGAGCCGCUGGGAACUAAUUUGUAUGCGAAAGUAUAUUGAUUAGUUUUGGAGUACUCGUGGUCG
# experimental-parameters: 37 °C
measurement-name: self-splicing fitness (ln)
Write the value as a bare number.

>>> result_value("CGGUAGCAAUAUUACGGUCA")
-0.275
>>> result_value("GAUCAGCAAUAUUACGCGCU")
-0.35

Task: Field request: self-splicing fitness (ln) | item: `CCCAAGCAAUAUUACGAAUC`
Result: -2.36

Task: Need self-splicing fitness (ln), item `AAACAGCAAUAUUACGCUCG`
Result: -0.7

Task: # get_value(readout='self-splicing fitness (ln)', item= `UAAGAGCAAUAUUACGUAAU` )
Result: -3.17

Task: If you can, please state the reported self-splicing fitness (ln) value of `UCGGAGCAAUAUUACGAACG` .
Result: -1.54

Task: Returns the measured self-splicing fitness (ln) for the input sequence. Input: `CGUCAGCAAUAUUACGCUAA`
Result: -0.0328

Task: Can you look up the measured self-splicing fitness (ln) of `CACCAGCAAUAUUACGCGCA` for me?
Result: -1.51

Task: Fill blank: measured self-splicing fitness (ln) of the sequence `GCAAAGCAAUAUUACGAUGC` is ____.
Result: -2.53

Task: Returns the measured self-splicing fitness (ln) for the input sequence. Input: `GACCAGCAAUAUUACGUGCU`
Result: -2.63

Task: Suppose we examine the sequence `AUACAGCAAUAUUACGUUCA` ; what self-splicing fitness (ln) value has been reported?
Result: -0.304

Task: Requested read-out: self-splicing fitness (ln). Entry: `UGAUAGCAAUAUUACGGGGG`
Result: -2.45

Task: Given `ACCUAGCAAUAUUACGGUGU` , state its recorded self-splicing fitness (ln).
Result: -1.93

Task: Consider the sequence shown here: `UUCGAGCAAUAUUACGUUUA` What is its recorded self-splicing fitness (ln)?
Result: -1.54
